All figures here come from patent US12583870B2.

- subject_of_test: EED protein (His6-tagged full-length) binding to H3K27me3 polypeptide (Homo sapiens, UniProt O75530)
- Construct: His6-tagged full-length EED protein (441 amino acids)
- Sequence (O75530 whole entry): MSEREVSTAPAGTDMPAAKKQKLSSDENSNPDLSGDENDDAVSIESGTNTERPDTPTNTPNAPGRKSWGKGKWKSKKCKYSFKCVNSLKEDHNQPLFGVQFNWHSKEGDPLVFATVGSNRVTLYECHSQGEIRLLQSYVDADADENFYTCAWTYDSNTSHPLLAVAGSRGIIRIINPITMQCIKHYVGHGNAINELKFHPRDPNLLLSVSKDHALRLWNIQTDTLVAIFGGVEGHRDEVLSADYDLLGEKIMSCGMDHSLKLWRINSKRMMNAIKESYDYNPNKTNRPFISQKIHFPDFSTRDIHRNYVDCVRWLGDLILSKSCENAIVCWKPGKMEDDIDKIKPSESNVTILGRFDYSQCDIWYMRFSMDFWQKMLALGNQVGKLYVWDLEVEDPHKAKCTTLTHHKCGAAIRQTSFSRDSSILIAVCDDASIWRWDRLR
- run_description: AlphaScreen evaluation of blocking the binding of EED to H3K27Me3
- recorded_conditions: EED 60 nM, biotinylated H3K27me3 75 nM, 30 minutes incubation
parameter: IC50 (µM)

- structure_as_smiles: "Cc1nc2c(-c3cnc(NCc4c(F)ccc5c4CCO5)n4cnnc34)cccc2o1"
  u: "µM"
  value_reported: 0.0092
- structure_as_smiles: "Fc1ccc2c(c1CNc1ncc(-c3cnc4nccn4c3)c3nncn13)CCO2"
  u: "µM"
  value_reported: 0.0049
- structure_as_smiles: "Cc1cc2c(cc1-c1cnc(NCc3c(F)ccc4c3CCO4)n3cnnc13)C=CS2(=O)=O"
  u: "µM"
  value_reported: 0.0041
- structure_as_smiles: "Cc1ccc(-c2cnc(NCc3c(F)ccc4c3CCO4)n3cnnc23)c2nc(CO)cn12"
  u: "µM"
  value_reported: 0.0083
- structure_as_smiles: "Fc1ccc2c(c1CNc1ncc(-c3cccc4ncoc34)c3nncn13)CCO2"
  u: "µM"
  value_reported: 0.0049
- structure_as_smiles: "Fc1ccc2c(c1CNc1ncc(-c3ccc4nncn4c3)c3nncn13)[C@H]1C[C@H]1O2"
  u: "µM"
  value_reported: 0.0042
- structure_as_smiles: "Fc1ccc2c(c1CNc1ncc(-c3cccn4ncnc34)c3nncn13)[C@H]1C[C@H]1O2"
  u: "µM"
  value_reported: 0.004

---

- System: KARPAS-422 cells
- run_description: Cell proliferation analysis, KARPAS-422, 13 days, CellTiter-Glo
- Format: cell-based
- recorded_conditions: Homo sapiens, 312 h
Listing: IC50 of selected compounds
parameter: IC50 (µM)

- structure_as_smiles: "Cc1cnc2c(-c3cnc(NCc4c(F)ccc5c4CCO5)n4cnnc34)cccn12"
  u: "µM"
  value_reported: 0.0014
- structure_as_smiles: "CN(C)CCN(C)Cc1ccc(-c2cnc(NCc3c(F)ccc4c3CCO4)n3cnnc23)c2ncnn12"
  u: "µM"
  value_reported: 0.0035
- structure_as_smiles: "O=S1(=O)C=Cc2c(-c3cnc(NCc4c(F)ccc5c4[C@H]4C[C@H]4O5)n4cnnc34)cccc21"
  u: "µM"
  value_reported: 0.0115
- structure_as_smiles: "CN(C)c1nc2c(-c3cnc(NCc4c(F)ccc5c4CCO5)n4cnnc34)cccn2n1"
  u: "µM"
  value_reported: 0.0054
- structure_as_smiles: "Fc1ccc2c(c1CNc1ncc(-c3cccn4cc(C(F)(F)F)nc34)c3nncn13)CCO2"
  u: "µM"
  value_reported: 0.0017
- structure_as_smiles: "COc1cc(-c2cnc(NCc3c(F)ccc4c3CCO4)n3cnnc23)c2ncnn2c1"
  u: "µM"
  value_reported: 0.0017
- structure_as_smiles: "Cc1ccc(-c2cnc(NCc3c(F)ccc4c3CCO4)n3cnnc23)c2ncc(C(=O)N(C)C)n12"
  u: "µM"
  value_reported: 0.0012
- structure_as_smiles: "NCCC1=CS(=O)(=O)c2ccc(-c3cnc(NCc4c(F)ccc5c4[C@@H]4C[C@@H]4O5)n4cnnc34)cc21"
  u: "µM"
  value_reported: 0.033
- structure_as_smiles: "O=S1(=O)C=C(F)c2cc(-c3cnc(NCc4c(F)ccc5c4[C@H]4C[C@H]4O5)n4cnnc34)ccc21"
  u: "µM"
  value_reported: 0.097
- structure_as_smiles: "CC(=O)c1c(C)nc2c(-c3cnc(NCc4c(F)ccc5c4CCO5)n4cnnc34)cccn12"
  u: "µM"
  value_reported: 0.0016
- structure_as_smiles: "Cc1c(F)cc(-c2cnc(NCc3c(F)ccc4c3CCO4)n3cnnc23)c2ncnn12"
  u: "µM"
  value_reported: 0.0047
- structure_as_smiles: "Cc1cc2c(cc1-c1cnc(NCc3c(F)ccc4c3CCO4)n3cnnc13)C=CS2(=O)=O"
  u: "µM"
  value_reported: 0.0005
- structure_as_smiles: "Cc1ccc(-c2cnc(NCc3c(F)ccc4c3CCO4)n3cnnc23)c2ncc(CC(=O)N3CCOCC3)n12"
  u: "µM"
  value_reported: 0.0057
